Please provide measured EC50 for the entries that follow.
# system-tested: glutathione-S-transferase (GST) tagged LXRalpha LBD (ligand binding domain) (Homo sapiens)
# Construct: purchased Invitrogen pv4655
# protocol-summary: LanthaScreen TR-FRET Liver X Receptor Coactivator Assay, co-activator recruitment to LXRalpha LBD
# Type: biochemical
# protocol-conditions: potency (Inflection Point, IP), co-activator recruitment to LXRalpha LBD, in relation to T0901317; read-out: LXR alpha IP
Write the number in nM without appending the unit.

Sample CN(C(=O)c1ccc(N2CCC(CC3CCN(C(=O)[C@](O)(c4ccccc4)C(F)(F)F)CC3)CC2)cc1Cl)C1CC1 [Example 4-11] — what was its EC50?
402

Sample O=C(c1ccc(N2CCC(OC3CCN(C(=O)[C@](O)(c4ccccc4)C(F)(F)F)CC3)CC2)cc1Cl)N1CCC[C@H]1CO [Example 4-7] — what was its EC50?
516

Sample CN(C)CCNC(=O)c1ccc(N2CCC(CC3CCN(C(=O)[C@](O)(c4ccccc4)C(F)(F)F)CC3)CC2)cc1Cl [Example 4-16] — what was its EC50?
688

Sample CN(C)C(=O)c1ccc(N2CCC(CC3CCN(C(=O)[C@@](O)(c4cccc(Cl)c4)C(F)(F)F)CC3)CC2)nc1Cl [Example 7-70] — what was its EC50?
1250

Sample CN(C)C(=O)c1ccc(N2CCC(CC3CCN(C(=O)[C@](O)(c4cccc(F)c4)C(F)(F)F)CC3)CC2)cc1Cl [Example 2-84] — what was its EC50?
140

Sample CN(C)C(=O)c1ccc(N2CCC(OC3CCN(C(=O)C4(C(F)(F)F)CCCCC4)CC3)CC2)cc1Cl [Example 2-19] — what was its EC50?
1810

Sample CN(C)C(=O)c1ccc(N2CCC(CC3CCN(C(=O)C(O)(c4cccc(C#N)c4)C(F)(F)F)CC3)CC2)nc1Cl (stereo not drawn) [Example 7-78] — what was its EC50?
298

Sample CN(C)C(=O)c1ccc(N2CCC(CC3CCN(C(=O)[C@](O)(c4cccc(C#N)c4)C(F)(F)F)CC3)CC2)cc1Cl [Example 2-88] — what was its EC50?
137

Sample CC(C)C(O)(C(=O)N1CCC(CC2CCN(c3ccc(C(=O)N(C)C)c(Cl)c3)CC2)CC1)c1ccccc1 (stereo not drawn) [Example 2-109] — what was its EC50?
982

Sample CN(C)C(=O)c1ccc(N2CCC(CC3CCN(C(=O)[C@](O)(c4cccc(C(F)(F)F)c4)C(F)(F)F)CC3)CC2)nc1Cl [Example 7-87] — what was its EC50?
252

Sample CN(C)C(=O)c1ccc(N2CCC(CC3CN(C(=O)[C@](O)(c4ccccc4)C(F)(F)F)C3)CC2)cc1Cl [Example 2-58] — what was its EC50?
951

Sample CNC(=O)c1ccc(N2CCC(CC3CCN(C(=O)[C@](O)(c4ccccc4)C(F)(F)F)CC3)CC2)nc1Cl [Example 7-141] — what was its EC50?
173

Sample CNC(=O)c1ccc(N2CCC(CC3CCN(C(=O)[C@](O)(c4cccc(OC)c4)C(F)(F)C(F)(F)F)CC3)CC2)cc1Cl [Example 7-124] — what was its EC50?
482

Sample COc1cc(F)cc([C@@](O)(C(=O)N2CCC(CC3CCN(c4ccc(C(N)=O)c(Cl)c4)CC3)CC2)C(F)(F)F)c1 [Example 12-3] — what was its EC50?
49

Sample CN(C)C(=O)c1ccc(N2CCC(CC3CCN(C(=O)C(O)(c4cc(F)cc(Cl)c4)C(F)(F)F)CC3)CC2)nc1Cl (stereo not drawn) [Example 7-109] — what was its EC50?
51

Sample COc1ccccc1C1(C(=O)N2CCC(CC3CCN(c4ccc(C(=O)N(C)C)c(Cl)n4)CC3)CC2)CCC1 [Example 7-57] — what was its EC50?
438

Sample CN(C)C(=O)c1ccc(N2CCC(CC3(C)CCN(C(=O)[C@](O)(c4ccccc4)C(F)(F)F)CC3)CC2)cc1Cl [Example 2-44] — what was its EC50?
32

Sample CN(C)C(=O)c1ccc(N2CCC(CC3(C)CCN(C(=O)[C@](O)(c4cccc(F)c4)C(F)(F)F)CC3)CC2)cc1Cl [Example 2-57] — what was its EC50?
37

Sample CS(=O)(=O)c1cccc(N2CCC(CC3CCN(C(=O)[C@](O)(c4ccccc4)C(F)(F)F)CC3)CC2)c1 [Example 2-74] — what was its EC50?
444

Sample CN(C)C(=O)c1ccc(N2CCC(CC3CCN(C(=O)[C@](O)(c4cc(F)cc(Cl)c4)C(F)(F)F)CC3)CC2)cc1 [Example 2-139] — what was its EC50?
266

Sample CNC(=O)c1ccc(N2CCC(CC3CCN(C(=O)C(O)(c4cc(F)cc(F)c4)C(F)(F)F)CC3)CC2)cc1Cl (stereo not drawn) [Example 7-122] — what was its EC50?
94

Sample Cc1nc(N2CCC(CC3CCN(C(=O)[C@](O)(c4ccccc4)C(F)(F)F)CC3)CC2)ccc1C(=O)N(C)C [Example 7-1] — what was its EC50?
895

Sample CN(C)C(=O)c1ccc(N2CCN(CC3CCN(C(=O)[C@](O)(c4ccccc4)C(F)(F)F)CC3)CC2)cc1Cl [Example 6-1] — what was its EC50?
9030

Sample CNC(=O)c1ccc(N2CCC(CC3CCN(C(=O)[C@](O)(c4cccc(C(C)C)c4)C(F)(F)F)CC3)CC2)cc1Cl [Example 7-123] — what was its EC50?
307

Sample CC(C)(C(=O)N1CCC(CC2CCN(c3cccc(S(C)(=O)=O)c3)CC2)CC1)c1ccccc1 [Example 2-73] — what was its EC50?
5370

Sample CN(C)C(=O)c1ccc(N2CCC(CC3CCN(C(=O)C4(c5ccccc5)CCCC4)CC3)CC2)nc1Cl [Example 7-64] — what was its EC50?
663

Sample CNC(=O)c1ccc(N2CCC(CC3CCN(C(=O)[C@](O)(c4cccc(F)c4)C(F)(F)F)CC3)CC2)nc1Cl [Example 7-152] — what was its EC50?
69

====

# system-tested: glutathione-S-transferase (GST) tagged LXRalpha LBD (ligand binding domain) (Homo sapiens, UniProt Q13133)
# Construct: purchased Invitrogen pv4655
# Sequence (Q13133 209-447 limits assumed): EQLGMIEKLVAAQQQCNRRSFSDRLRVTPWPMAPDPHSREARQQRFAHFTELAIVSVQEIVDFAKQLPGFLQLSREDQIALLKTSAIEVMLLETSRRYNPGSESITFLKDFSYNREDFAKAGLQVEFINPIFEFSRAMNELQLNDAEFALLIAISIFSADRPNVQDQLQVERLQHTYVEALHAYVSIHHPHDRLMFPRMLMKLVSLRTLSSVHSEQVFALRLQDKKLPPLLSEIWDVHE
# protocol-summary: LanthaScreen TR-FRET Liver X Receptor Coactivator Assay, co-activator recruitment to LXRalpha LBD
# Format: biochemical
# protocol-conditions: potency (Inflection Point, IP), co-activator recruitment to LXRalpha LBD, in relation to T0901317; read-out: LXR alpha IP
Please provide measured pEC50 for the entries that follow.
Reminder that pEC50 is minus the log10 of a molar concentration.

Sample O=C(c1ccc(N2CCC(CC3CCN(C(=O)[C@](O)(c4ccccc4)C(F)(F)F)CC3)CC2)cc1Cl)N1[C@H]2CC[C@@H]1CC2 [Example 4-21] — what was its pEC50?
6.34

Sample Cc1cc(N2CCC(CC3CCN(C(=O)C(O)(c4cccc(Cl)c4)C(F)(F)F)CC3)CC2)ncc1C(=O)N(C)C (stereo not drawn) [Example 7-4] — what was its pEC50?
5.88

Sample CN(C)C(=O)c1ncc(N2CCC(CC3CCN(C(=O)C(O)(c4cccc(Cl)c4)C(F)(F)F)CC3)CC2)cc1Cl (stereo not drawn) [Example 2-6] — what was its pEC50?
6.06

====

# system-tested: glutathione-S-transferase (GST) tagged LXRalpha LBD (ligand binding domain) (Homo sapiens)
# Construct: purchased Invitrogen pv4655
# protocol-summary: LanthaScreen TR-FRET Liver X Receptor Coactivator Assay, co-activator recruitment to LXRalpha LBD
# Assay type: biochemical
# protocol-conditions: potency (Inflection Point, IP), co-activator recruitment to LXRalpha LBD, in relation to T0901317; read-out: LXR alpha IP
quantity-kind: pEC50
Reminder that pEC50 is minus the log10 of a molar concentration.

Test system glutathione-S-transferase (GST) tagged LXRalpha LBD (ligand binding domain) (Homo sapiens); read-out pEC50; what value for CN(C)C(=O)c1ccc(N2CCC(CC3CCN(C(=O)[C@](O)(c4ccccc4)C(F)(F)F)CC3)CC2)cc1 ?
5.98

Test system glutathione-S-transferase (GST) tagged LXRalpha LBD (ligand binding domain) (Homo sapiens); read-out pEC50; what value for CNC(=O)c1ccc(N2CCC(CC3CCN(C(=O)[C@](O)(c4ccccc4F)C(F)(F)F)CC3)CC2)nc1Cl ?
6.10

Test system glutathione-S-transferase (GST) tagged LXRalpha LBD (ligand binding domain) (Homo sapiens); read-out pEC50; what value for CNC(=O)c1ccc(N2CCC(OC3CCN(C(=O)C4(c5ccccc5F)CCCC4)CC3)CC2)cc1Cl ?
5.36

Test system glutathione-S-transferase (GST) tagged LXRalpha LBD (ligand binding domain) (Homo sapiens); read-out pEC50; what value for CNC(=O)c1ccc(N2CCC(CC3CCN(C(=O)C(O)(c4cccnc4)C(F)(F)F)CC3)CC2)nc1Cl (stereo not shown) ?
5.59

Test system glutathione-S-transferase (GST) tagged LXRalpha LBD (ligand binding domain) (Homo sapiens); read-out pEC50; what value for CNC(=O)c1ccc(N2CCC(CC3CCN(C(=O)C(O)(c4cccc(C#N)c4)C(F)(F)F)CC3)CC2)nc1Cl (stereo not shown) ?
6.67

Test system glutathione-S-transferase (GST) tagged LXRalpha LBD (ligand binding domain) (Homo sapiens); read-out pEC50; what value for CN(C)C(=O)c1ccc(N2CCC(CC3CCN(C(=O)[C@](O)(c4cccc(Br)c4)C(F)(F)F)CC3)CC2)nc1Cl ?
6.96

Test system glutathione-S-transferase (GST) tagged LXRalpha LBD (ligand binding domain) (Homo sapiens); read-out pEC50; what value for COCCN(C)C(=O)c1ccc(N2CCC(OC3CCN(C(=O)[C@](O)(c4ccccc4)C(F)(F)F)CC3)CC2)cc1Cl ?
5.66
